System: SN12C renal
PROTOCOL_TEXT: NCI tumour cell line growth inhibition, 48 h; in the data active means GI50 below about 0.43 µM; inactive means the rest
Reply using exactly one outcome from class 1 = active, class 0 = inactive

> print(dat)
                            compound  assigned.class
1  Cn1c2ccccc2c2nnc(NNCc3ccccn3)nc21         class 0

Query: recorded result category for COc1ccc2[nH]c(O)c(/C=c3/ccc4c(c3)N=C(c3ccc(F)cc3)N=4)c2c1 in this test
class 0

Another compound to look at: CC1(C)N=C(N)N=C(N)N1c1ccc(Cl)c(Cl)c1
class 0

Another compound to look at: CCCCCSC1C2C(=O)C(Br)=CC13CCNc1c(O)c4c5c(c13)=[N+]2CCC=5C=N4 (stereo not given)
class 1

Another compound to look at: CC12CCC(O)CC1=CCC1C2CCC2(C)C(c3cccnc3)=CCC12 (stereo not given)
class 0

Another compound to look at: Oc1ccccc1C=Nc1ccccc1N=Cc1ccccc1O.[Cu+2]
class 0

---

System: MDA-MB-435
PROTOCOL_TEXT: NCI tumour cell line growth inhibition, 48 h
Catalogue of TGI readings, one per entry.

Examples with their reported TGI follow.
> print(dat)
                                    compound  result.type  value.measured
 1                   C#CC(=O)OCC#CCOC(=O)C#C          TGI        > 100 µM
 2  Oc1c2c(c(O)c3ccccc13)C1(N=N2)c2ccccc2Oc2ccccc21          TGI         17.9 µM
 3  CN(C)c1ccc(C(=C2C=CC(=[N+](C)C)C=C2)c2ccccc2Cl)cc1          TGI         1.11 µM
 4  Brc1ccc(-c2cc(-c3ccc4c(c3)OCO4)c(-c3cccs3)n2Cc2ccccc2)cc1          TGI        > 100 µM
 5  COc1ccc(C#CC2=C(c3cc(OC)c(OC)c(OC)c3)C(=O)OC2)cc1          TGI         7.82 µM
 6  CC(C)(SCc1ccccc1)C(N)C(=O)O (configuration not stated)          TGI        > 100 µM
 7  COC(=O)/C(=C\c1c(-c2ccccc2)[nH]c2ccccc12)S(C)(=O)=O          TGI         4.77 µM
 8  CC(OC(=O)N(N(CCCl)S(C)(=O)=O)S(C)(=O)=O)c1ccc([N+](=O)[O-])cc1 (configuration not stated)          TGI        > 100 µM
 9  CC(C)(O)CCc1ccc(O)c2c(=O)c3c(O)c4c(cc3oc12)O[C@H]1OC=C[C@@]41O          TGI       < 0.01 µM
10  CCn1c(=O)c2c3cc(OC(C)=O)ccc3oc2c2ccc(OC(C)=O)cc21          TGI        > 100 µM

Recorded TGI of Cc1cc(O)cc(C)c1/C=C/c1cncc(C(=O)OC(C)(C)C)c1 , please.
> 25 µM

Another compound to look at: COc1cccc(C=C2N=C(C)N(n3c(-c4ccccc4)nc4ccccc4c3=O)C2=O)c1
> 100 µM

Another compound to look at: CSc1ccc2c(cc1=O)[C@@H](NC(=O)c1ccc([N+](=O)[O-])cc1)CCc1cc(O)c(O)c(O)c1-2
> 100 µM

Another compound to look at: Cc1ccc(C(=O)N=Nc2c(O)[nH]c3ccc(Cl)cc23)cc1
40.6 µM

Another compound to look at: FC(F)(F)c1[nH]ncc1-c1nc2ccc3[nH]ncc3c2c2c1CCCC2
9.55 µM

Another compound to look at: O=C(CCc1ccc(O)cc1)NCCCNC(=O)CCc1ccc(O)cc1
> 100 µM

Another compound to look at: COc1ccc(/C=C(/c2ccccc2)c2c(C)cc(C)c(/C(=C\c3ccc(OC)cc3)c3ccccc3)c2N=Nc2cc(C)cc(C)c2)cc1
> 62.2 µM

Another compound to look at: COc1cc2c(cc1O)C(c1cc(O)c(O)c(OC)c1)C(O)(C(=O)O)C(CO)C2O (configuration not stated)
37 µM
